Measured %Inh of individual entries
tested on: PIP5K2B; conditions: concentration: 1 μM, replicates: in singlicate; n = 1;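 note: KINOMEscan kinase panel screen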
Dear colleague, please return just the value in %, with no unit written.

Example entries begin here.
Compound	Measurement Target	Property	Numeric Readout
CC(C)NCC(Cc1ccccc1)NC(=O)c1cc(Br)c(-c2ccnc3[nH]ccc23)s1.Cl.Cl (centres unmarked)	PIP5K2B	%Inh	17
COc1cc(Nc2ccnc3cc(-c4ccncc4)ccc23)cc(OC)c1OC.Cl	PIP5K2B	%Inh	8
CC(C)c1nc(-c2cccc(NS(=O)(=O)c3c(F)cccc3F)c2)c(-c2ccnc(Nc3ccc(N4CCOCC4)nc3)n2)s1.Cl	PIP5K2B	%Inh	18

Reported %Inh of CSc1ccc(NC2=C(c3ccc(Cl)cc3)C(=O)NC2=O)cc1 : 43

%Inh measured on Cl.O=C(Nc1ccc(Oc2ccc3[nH]c(NC(=O)c4ccco4)nc3c2)cc1)Nc1cc(C(F)(F)F)ccc1F = 0

Lab book: %Inh of Cc1ccc(NC(=O)c2ccc(Cl)c(Cl)c2)cc1-c1ccc(C(=O)Nc2ccncc2)cc1 noted as 0

Recorded result, Nc1ncc(-c2ccc3nccc(-c4ccncc4)c3c2)cc1S(=O)(=O)N1CCCCC1 , %Inh: 0
